// reported PBM binding z-score for each item listed
Test system: RXRa homodimer (NR concentration 180 nM)
Assay: PBM binding z-score (relative to random genomic background probes); higher = stronger binding; sequences stand for … in GC…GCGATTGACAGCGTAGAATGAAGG

# Sequence Entry, PBM binding z-score
data = [
    ("AGTCAAAGTTCACTAGGTAACGGAAGATTCAGCT", 3.89),
    ("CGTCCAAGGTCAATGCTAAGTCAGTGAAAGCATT", 4.48),
    ("ATCTCTAGGTAATAAGTTCAGTGAAAGAGAGGAC", 0.755),
    ("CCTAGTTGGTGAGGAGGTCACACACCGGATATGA", 3.91),
    ("TAGCCTAGGCCATGCGGGCCAGTATAGTGTCGGC", -0.471),
    ("CGAACTAGGTCAAGGAGAGTGAATCTCCGCACGC", 2.85),
    ("GCTGGTAGGTCAACTGATGGTCAGCTAAAGCTCG", 3.65),
    ("CGAACTAGGTCATTGACAGGACAGTGCATAGTAA", 2.43),
    ("CGAACGAGGGCATGAGTTGCTAGCAAATGCCGAT", 0.709),
    ("TCTGCTAGGTCAACGATGGTCACCTAATCTGCTA", 2.69),
]

----------
Test system: RARg homodimer (NR concentration 270 nM)
Assay: PBM binding z-score (relative to random genomic background probes); higher = stronger binding; sequences stand for … in GC…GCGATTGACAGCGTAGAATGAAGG
// reported PBM binding z-score for each item listed
Measure: PBM binding z-score

# Sequence Entry, Measure, Test Value
data = [
    ("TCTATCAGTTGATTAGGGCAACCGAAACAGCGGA", "PBM binding z-score", 0.467),
    ("ATCTCTAGGTAACCAAGTTCTGTGAATGCCGAAC", "PBM binding z-score", 0.194),
    ("TCTTGTAGATCAATTGAGGTTAAGAAAGTGCGCT", "PBM binding z-score", 0.0458),
    ("CCTCGCAGGCCAGGGTCACTCAAGCATTTCGCTT", "PBM binding z-score", 2.2),
    ("TCGAGTAGGTTAGTCGGTGCATTCAGCCAACATA", "PBM binding z-score", -0.407),
    ("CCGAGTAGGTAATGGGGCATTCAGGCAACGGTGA", "PBM binding z-score", 0.0893),
    ("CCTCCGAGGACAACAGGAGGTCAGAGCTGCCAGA", "PBM binding z-score", 3.21),
    ("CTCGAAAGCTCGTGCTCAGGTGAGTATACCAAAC", "PBM binding z-score", -0.592),
    ("GGAACGAGGGCAGGTTGATAGCAGAGTTTGATGG", "PBM binding z-score", 1.26),
]

----------
Tested on: RXRa DBDmut IVT, anti-RXR (DBD mutation: RXRa K156A/R161A, NR concentration 90 nM)
Assay: PBM binding z-score (relative to random genomic background probes); higher = stronger binding; sequences stand for … in GC…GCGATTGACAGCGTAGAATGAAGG
Binary call on PBM binding z-score: Criterion met from 0.5 upward, Criterion not met beneath that.

# Sequence Entry, Experimental System, Label Value
data = [
    ("TCATATAGGTAAACAGGCGAAAGTCCGTAAGTTA", "RXRa DBDmut IVT, anti-RXR (DBD mutation: RXRa K156A/R161A, NR concentration 90 nM)", "Criterion met"),
    ("CAAACTAGGTCACCGGAAGGTCAGAGTCCGCATG", "RXRa DBDmut IVT, anti-RXR (DBD mutation: RXRa K156A/R161A, NR concentration 90 nM)", "Criterion met"),
    ("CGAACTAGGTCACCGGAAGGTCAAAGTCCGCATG", "RXRa DBDmut IVT, anti-RXR (DBD mutation: RXRa K156A/R161A, NR concentration 90 nM)", "Criterion met"),
    ("CCTATTAGTTGCCCATAAGGGCAACCGAAGCTCG", "RXRa DBDmut IVT, anti-RXR (DBD mutation: RXRa K156A/R161A, NR concentration 90 nM)", "Criterion not met"),
    ("ACTAGCAGGCAAAGGGTCACTCAAGATTAGTCCG", "RXRa DBDmut IVT, anti-RXR (DBD mutation: RXRa K156A/R161A, NR concentration 90 nM)", "Criterion met"),
    ("CCTACTGGGCCAAAGGTCATTGCTTCCAATGCTC", "RXRa DBDmut IVT, anti-RXR (DBD mutation: RXRa K156A/R161A, NR concentration 90 nM)", "Criterion met"),
    ("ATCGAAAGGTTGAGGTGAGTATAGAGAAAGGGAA", "RXRa DBDmut IVT, anti-RXR (DBD mutation: RXRa K156A/R161A, NR concentration 90 nM)", "Criterion not met"),
    ("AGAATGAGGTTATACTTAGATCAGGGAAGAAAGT", "RXRa DBDmut IVT, anti-RXR (DBD mutation: RXRa K156A/R161A, NR concentration 90 nM)", "Criterion met"),
    ("GCTTGTAGAACAAGGTTAAGAAAGACTAAGCTAA", "RXRa DBDmut IVT, anti-RXR (DBD mutation: RXRa K156A/R161A, NR concentration 90 nM)", "Criterion not met"),
    ("ATATGTAGGTTACATCCGCGTCATTCAGGCTATG", "RXRa DBDmut IVT, anti-RXR (DBD mutation: RXRa K156A/R161A, NR concentration 90 nM)", "Criterion not met"),
    ("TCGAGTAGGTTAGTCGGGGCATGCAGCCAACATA", "RXRa DBDmut IVT, anti-RXR (DBD mutation: RXRa K156A/R161A, NR concentration 90 nM)", "Criterion not met"),
    ("GCTAGCAGGCCATTTGGGTCACGCAATGACGGGC", "RXRa DBDmut IVT, anti-RXR (DBD mutation: RXRa K156A/R161A, NR concentration 90 nM)", "Criterion not met"),
    ("AGAATGAGGTTATACGTAGATCAAGGAAGAAAGT", "RXRa DBDmut IVT, anti-RXR (DBD mutation: RXRa K156A/R161A, NR concentration 90 nM)", "Criterion met"),
    ("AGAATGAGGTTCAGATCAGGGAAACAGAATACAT", "RXRa DBDmut IVT, anti-RXR (DBD mutation: RXRa K156A/R161A, NR concentration 90 nM)", "Criterion met"),
    ("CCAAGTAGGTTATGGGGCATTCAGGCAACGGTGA", "RXRa DBDmut IVT, anti-RXR (DBD mutation: RXRa K156A/R161A, NR concentration 90 nM)", "Criterion not met"),
    ("CCGACTGGGGCATAAGGTTACCAGAAGCCAGCCC", "RXRa DBDmut IVT, anti-RXR (DBD mutation: RXRa K156A/R161A, NR concentration 90 nM)", "Criterion not met"),
    ("TAGCCTAGGTCATTCAGGGGCCAGTGTAGAAAGC", "RXRa DBDmut IVT, anti-RXR (DBD mutation: RXRa K156A/R161A, NR concentration 90 nM)", "Criterion met"),
    ("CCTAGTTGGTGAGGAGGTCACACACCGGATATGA", "RXRa DBDmut IVT, anti-RXR (DBD mutation: RXRa K156A/R161A, NR concentration 90 nM)", "Criterion not met"),
    ("CCAGACAGGTGAGAAGGTAACTCTGCCTCGATTA", "RXRa DBDmut IVT, anti-RXR (DBD mutation: RXRa K156A/R161A, NR concentration 90 nM)", "Criterion not met"),
    ("TCAGGCAGGTGAAGGTAACTCAGGTACGCAGTCG", "RXRa DBDmut IVT, anti-RXR (DBD mutation: RXRa K156A/R161A, NR concentration 90 nM)", "Criterion met"),
    ("TGATTGAGGTTAAAGATCAGGGAACGTGGCGTCG", "RXRa DBDmut IVT, anti-RXR (DBD mutation: RXRa K156A/R161A, NR concentration 90 nM)", "Criterion met"),
    ("CCGAATGGGGCATAAGGTTACCATAAGCCAGCCC", "RXRa DBDmut IVT, anti-RXR (DBD mutation: RXRa K156A/R161A, NR concentration 90 nM)", "Criterion not met"),
    ("AGAATGAGGTTATTCGTAGATCAGGGAAGAAAGT", "RXRa DBDmut IVT, anti-RXR (DBD mutation: RXRa K156A/R161A, NR concentration 90 nM)", "Criterion met"),
    ("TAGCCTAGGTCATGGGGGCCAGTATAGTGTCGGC", "RXRa DBDmut IVT, anti-RXR (DBD mutation: RXRa K156A/R161A, NR concentration 90 nM)", "Criterion met"),
    ("CATACAGAGTCAGCTAGGCCAGAGTAGGGACGGC", "RXRa DBDmut IVT, anti-RXR (DBD mutation: RXRa K156A/R161A, NR concentration 90 nM)", "Criterion not met"),
    ("TAGCATAGGTCAGATCGGGCCAGTATACGCTATA", "RXRa DBDmut IVT, anti-RXR (DBD mutation: RXRa K156A/R161A, NR concentration 90 nM)", "Criterion not met"),
    ("CGAACGAGGGCATGAGTTGATAGCTAATGCCGAT", "RXRa DBDmut IVT, anti-RXR (DBD mutation: RXRa K156A/R161A, NR concentration 90 nM)", "Criterion met"),
    ("ACTCGGAGGACATAGGTCAGAGCTACGCCAGTGA", "RXRa DBDmut IVT, anti-RXR (DBD mutation: RXRa K156A/R161A, NR concentration 90 nM)", "Criterion met"),
    ("TATTGTAGATCAAGCAGGTTAAGAAAGCCTGAGT", "RXRa DBDmut IVT, anti-RXR (DBD mutation: RXRa K156A/R161A, NR concentration 90 nM)", "Criterion not met"),
    ("CGTCCAAGGTCCAGGTCAGTGAAAGAGACTCGAA", "RXRa DBDmut IVT, anti-RXR (DBD mutation: RXRa K156A/R161A, NR concentration 90 nM)", "Criterion not met"),
    ("GCTTACGGGACAAAGGTTATAGCATGAATAGAAT", "RXRa DBDmut IVT, anti-RXR (DBD mutation: RXRa K156A/R161A, NR concentration 90 nM)", "Criterion met"),
    ("AGTCAAAGTTCAGGACGCGGTAACGTAAAGCACG", "RXRa DBDmut IVT, anti-RXR (DBD mutation: RXRa K156A/R161A, NR concentration 90 nM)", "Criterion met"),
    ("ATATGTAGGTTAAGGGTCCTTCAGGTTGGTTCGC", "RXRa DBDmut IVT, anti-RXR (DBD mutation: RXRa K156A/R161A, NR concentration 90 nM)", "Criterion met"),
    ("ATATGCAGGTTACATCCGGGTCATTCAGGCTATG", "RXRa DBDmut IVT, anti-RXR (DBD mutation: RXRa K156A/R161A, NR concentration 90 nM)", "Criterion met"),
    ("GCGACTGGGGCAAAGCAGGTTACCATTAGGTTGG", "RXRa DBDmut IVT, anti-RXR (DBD mutation: RXRa K156A/R161A, NR concentration 90 nM)", "Criterion not met"),
    ("CGTCCAAGGTCAGAGTGGTCAGTGAATGCCGAGT", "RXRa DBDmut IVT, anti-RXR (DBD mutation: RXRa K156A/R161A, NR concentration 90 nM)", "Criterion met"),
    ("TCTATTAGTTGATTAGGGCAACCCAAACAGCGGA", "RXRa DBDmut IVT, anti-RXR (DBD mutation: RXRa K156A/R161A, NR concentration 90 nM)", "Criterion met"),
    ("ATCTCTAGGTAACCAAGTACAGTGAATGCCGAAC", "RXRa DBDmut IVT, anti-RXR (DBD mutation: RXRa K156A/R161A, NR concentration 90 nM)", "Criterion not met"),
    ("CCTACTGGGCCAAGTTCATTGATCAGTCAAAGCA", "RXRa DBDmut IVT, anti-RXR (DBD mutation: RXRa K156A/R161A, NR concentration 90 nM)", "Criterion met"),
    ("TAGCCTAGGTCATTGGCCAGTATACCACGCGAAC", "RXRa DBDmut IVT, anti-RXR (DBD mutation: RXRa K156A/R161A, NR concentration 90 nM)", "Criterion met"),
]
